Give measured viability, T/C for each item. Keep answers brief.
- System: 317291-083-R-J1-PDC complex spheroids, viability;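 also: spheroids exposed to compounds for one week before readout; percent viability relative to DMSO vehicle wells taken as 100%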
- TEST_PROTOCOL: Anticancer human tumor 317291-083-R-J1-PDC patient-derived soft tissue sarcoma cell line growth inhibition [GQUAD]
- PARTICULARS: second compound 1 µM; first compound 1 µM; stronger effect = lower value
Numbers only, in %.

Here's what some known entries look like.
>>> measured_value("C=CCn1c(=O)c2cnc(Nc3ccc(N4CCN(C)CC4)cc3)nc2n1-c1cccc(C(C)(C)O)n1 + Cc1[nH]c2ccc(F)cc2c1-c1nc2c3cccnc3c3ncccc3c2[nH]1")
7.15
>>> measured_value("CC(C)n1c(=O)n(C)c2cnc3cc(F)c(-c4ccc(OCCCN5CCCCC5)nc4)cc3c21 + CN(C)c1ccc(Nc2c3ccc(NC(=O)CCN4CCCC4)cc3nc3cc(NC(=O)CCN4CCCC4)ccc23)cc1")
34.4

## Task Name the reported viability, T/C value associated with the compound CC1COCCN1c1cc(C2(S(C)(=N)=O)CC2)nc(-c2ccnc3[nH]ccc23)n1 (stereo not drawn) + Cc1cnc(CNC(=O)c2c(=O)c3ccc(N4CCCN(C)CC4)nc3n3c2sc2ccccc23)cn1
## Result 20.8
